Test system: Saccharomyces cerevisiae
Assay: fraction of cells in G1 phase (DNA content, flow cytometry); higher = more cells with unreplicated DNA (G1 delay)
Settings: temperature: 30 C; YPD; JTY2953 pdr5 snq2 (sensitized); drug added to: actively dividing cells; 6 h
The entries below come with measured fraction of cells in G1 phase values attached.

Worked examples follow.
[in] Give the reported fraction of cells in G1 phase for CC1C=CC=CCCC=CC=CC=CC=CC(OC2OC(C)C(O)C(N)C2O)CC2OC(O)(CC(O)C(O)CCC(O)CC(O)CC(O)CC(=O)OC(C)C(C)C1O)CC(O)C2C(=O)O (stereo unspecified) [Nystatin] (21.5955 µM) (system: Saccharomyces cerevisiae).
[out] 0.699

[in] Input C#C[C@]1(O)CC[C@H]2[C@@H]3CCC4=CC(=O)CCC4=C3C=C[C@@]21CC [Gestrinone] (64.8457 µM)
[out] 0.736

# input for lookup
[in] Hello, I am looking for reported fraction of cells in G1 phase with Saccharomyces cerevisiae for C[C@@H]1CC[C@H]2[C@@H](C)C(=O)O[C@@H]3O[C@@]4(C)CC[C@@H]1[C@]32OO4 [Artemisinin] (70.8367 µM) . Could you help?
[out] 0.691

// data source = the supplement of paper PMC3342239
